Test: folding stability dG unfold from chymotrypsin proteolysis; higher = more stable
Measurement type: folding stability dG unfold
Answer format reminder: number followed by unit.

Monomer sequence | folding stability dG unfold
SAGGSAGGSANIDIKVEENPGNGYRKVEVTMTVDDLRELFGNEPIPPGEERQIKMTIYLPIPSAGGSAGGSA [r18_327_TrROS] | 1.37 kcal/mol
SAGGSAGGSAPELVKKIAEELPVPVKVEPFGNVLLVELELPNEDGEPVKLRLAIPIPPELLGSAGGSAGGSA [r18_27_TrMRF] | 0.909 kcal/mol
SAGPLTVTVEGDTLTVTVPLTDVPADATVRVTVTVGDKTEEYTVPPSESITVTVPSSAVEVTVERLPPASAG [r5_867_JUSTAS] | 2.44 kcal/mol

[in] Query: folding stability dG unfold; subject: SAGGSAGGSPPPDIKVEVESYENPDGQRYYRVTITIDDGRPFDIWMPPGMSPSEAKNWLKDLLSAGGSAGGS [r12_1019_TrROS]
[out] 3.96 kcal/mol

###

Assay: folding stability dG unfold (combined trypsin and chymotrypsin); higher = more stable
# maps each entry to its folding stability dG unfold
# unit: kcal/mol | format: bare number

Solved cases (3 shown):
Monomer sequence | Measurement type | Result units | Measurement
SAGGVITAEQLRDLVKTLPPDYTIRVKVYYSTSTEEYTITPDNPIKFPPNAPTETITRIEVVEISPDSAGGS [r16_97_TrMRF] | folding stability dG unfold | kcal/mol | 4.33
SAGGLSYIELEVEFPGGGSFEEAKARAEKLAEEVRKKLGLKEVKIEIKKNPDGSYRVKITIKVPSKLSAGGS [r8_3_JUSTAS] | folding stability dG unfold | kcal/mol | 3.02
SMKTVVIKIRKKDGKVTLEEIREAIKALLPPGAKVKLTEEELEKLVEELEKKTGKEITADDLVIVVEVEPSA [r9_197_TrROS_Hall] | folding stability dG unfold | kcal/mol | 2.51

[in] Query: folding stability dG unfold; subject: SAGGSAGGSAGGNDPNGQEKEIPIDPGQRADEIAEEFKDEFNPDHVEIEASEEGYAEVRVSAGGSAGGSAGG [r7_273_TrROS]
[out] 0.348

[in] Next entry: SAGGSAGGSASPVPVVEVEITPVKLPGDETAAKITVLLEGDGEPVVVWFDSKDVEKVIEEVLASAGGSAGGS [r20_238_JUSTAS]
[out] 0.774

[in] Next entry: SAGGSAMPPGQPWKIKRTIPFKDPNGWKITIYRMPDDGHVWVRWEPPNGGEREVWMPAEEAEDALKSAGGSA [r15_2_TrROS]
[out] 0.307

[in] Next entry: SMTITFKTEEEAKKAAEELLKELEKKLKPGQKIKITVTTEDGKTITIEIEIKPPKKEVEVDEETGELKEKSA [r9_596_TrROS_Hall]
[out] 1.97

[in] Next entry: SAGGSAGGSAGVVLTEDGYAVATVTVTTTTVEYDEETGEWKETTTTTTETLTVVVPVGATSAGGSAGGSAGG [r17_527_TrROS_Hall]
[out] 2.22

[in] Next entry: SAGGSAKVKIEVSIEVSEDGTITITVRITNENGEELTVTITIKLPPAPTVVYDSEEERKKALEALASAGGSA [r15_1018_TrROS_Hall]
[out] 2.38

[in] Next entry: SAGGDVTIEWFPMSEEEMKKMMEEMPPNTIMIPFPGNGYFIPVRVPDDPEEADKIAEEIRKWLEQLPSAGGS [r16_311_TrROS]
[out] 1.62

[in] Next entry: SAGGAPSSFSTSSDPDGTQLLVVTEPGSGKPRTVRIPPGLNEAVTIPPSRSVSSVELVRVSPASPALLSAGG [r13_122_JUSTAS]
[out] -0.803

###

Experiment: folding stability dG unfold (combined trypsin and chymotrypsin); higher = more stable
Measurement type: folding stability dG unfold (kcal/mol)
# unit: kcal/mol | format: bare number

Monomer sequence | folding stability dG unfold, kcal/mol
SAGMVIPILLKPEPERPEEVEKKAIEFANKLKPLNLPNVKIKVYRAPYVDPETGKTTVLYLVLIEVEPPSAG [r5_49_TrMRF] | 2.4
SAGGSAGGSAKPQKVELELFPNGELIIRLPETGARIRLKVEVFKDASGNPFFKLEIVDIDPSAGGSAGGSAG [r3_76_TrMRF] | 2.6
SAGGMKTLKIKIKVPEDEEKAEELAKKLEELFGLKVEVEKKDGELTITVEVSEEVRELLKELGVEIEPSAGG [r13_156_TrROS_Hall] | 3.79
SAGGSAGGSAGGVYKVEIEIGDAPRTLVVENAAPEEIRAFLEHPEVRRARVEPLSPEELGSAGGSAGGSAGG [r7_502_TrMRF] | -0.152
SAGGSAGGSAMKIVEWNEETGELTIELPDGTKITLKVENGEITEVKVEPLPPVPPDLPELKSAGGSAGGSAG [r3_406_TrROS_Hall] | 2.24

[in] Query: folding stability dG unfold; subject: SDVNIKPEKVDPNGIFTVEIPVDNNNVDKLREIINEIFPNFEPTEVKPNPESGYHEIIMRVPDGKAFEFSSA [r9_1164_TrROS]
[out] -0.55

[in] Next entry: SAGGSADELVVRLRVRDPRTERPLEIDLPVPASLTPEEAIARAERLAAAFRSLGLETEVEVEPVPRSAGGSA [r15_268_TrMRF]
[out] 1.73

[in] Next entry: SAGGSAGGSAGGFTIKIETRPMPMFSKDGKPLAEMNMYRIKIEVPDMPPGLADKLIDLIQSAGGSAGGSAGG [r7_450_TrROS]
[out] 2.67

[in] Next entry: SSSGTDPLTVRVTVTLTDPSTGKETLLEYEVEVPPGTPVEVELPDVPPSASVTVEVYDPGGVRIGTRTLPSA [r9_478_JUSTAS]
[out] 1.95

[in] Next entry: SAGGMTIKPGETVEIEVGGKKITLTRNENGELTITIEDEETGETLTITVPKDTTLEEVLKKIEELLKSAGGS [r8_158_TrROS_Hall]
[out] 3.61

###

Test: folding stability dG unfold (combined trypsin and chymotrypsin); higher = more stable
// map folding stability dG unfold to label using bin 0 (below 2 kcal/mol), bin 1 (2 kcal/mol to below 4 kcal/mol), bin 2 (4 kcal/mol or more)

[in] Any idea which band SMKIVIVKNKDGTVIVRITFPNGEEITITAKTEEEAKKAIEELIKKLQEKYNIKIKIEVKPVKPGEVIEESA [r9_786_TrROS_Hall] is in?
[out] bin 1

###

# maps each entry to its folding stability dG unfold
Test: folding stability dG unfold (combined trypsin and chymotrypsin); higher = more stable
# unit: kcal/mol | format: bare number

Monomer sequence | Measurement type | Measurement
SAGGSAGGSAKPKVKIEVEERRVLTLDPETGELKEERVLVVRIEVEPGMSEEEAKKLLEELASAGGSAGGSA [r18_438_TrROS_Hall] | folding stability dG unfold | 2.27
SAGGSAGGITIRDPDNGIEVKILKITPNHMIIQAEFPNGRNYMIEMPPDSLKPGDEIPMTVHPVSAGGSAGG [r6_152_TrROS] | folding stability dG unfold | -0.148
SAGGSAGGMKITKIESVEPNPENGMVSLEMKIENGASILIHYNPDNGKVTIMVFKPNEIEPIELSAGGSAGG [r6_796_TrROS] | folding stability dG unfold | 1.76

[in] Query: folding stability dG unfold; subject: SAGGSAGGSPGFIIRVRTWERDPKDGKWKPKRERPLTFPPDDADDFADKLNSESPNVEVEIMPSAGGSAGGS [r12_342_TrROS]
[out] -0.0797

[in] Next entry: SAGGSAPREIPIMIRVPGYQIEIHKITVPPNGMVQIGLEWRNPGGDKPVTINIWLPLNEIKDFIKASAGGSA [r15_56_TrROS]
[out] 2.54

###

Assay: folding stability dG unfold (combined trypsin and chymotrypsin); higher = more stable
Measurement type: folding stability dG unfold (kcal/mol)
# unit: kcal/mol | format: bare number

Solved cases (5 shown):
Monomer sequence | folding stability dG unfold [kcal/mol]
SAGGSAGGSAGGGERRRVLHINPEDGYIQRMEFDPDDGEPTGSETVPFKSPEDALDKLIDSAGGSAGGSAGG [r7_105_TrROS] | -0.152
SAGGSAGGSAGGMMRIRIKIYNVETGEWKEIEIEVPESVKEITLEIELPEGWRIVEIEVESAGGSAGGSAGG [r7_687_TrROS_Hall] | 5.32
SAGGSASLQTSTASVSPGALEKAIEAAKAAPPGTAVSVSFGDPVVGTPRPVTLTVDSAGNLVEITGSAGGSA [r15_228_JUSTAS] | 0.188
SAGGKLTLELEFELEDGLRVRLRVEVDEDGELRVTLEVEPEPPPPPIRVVKNEDGSEYVYRNGKLYKLSAGG [r13_151_TrROS_Hall] | 4.16
SAGGSAMLDNLVPVGSVTVVERFPDGLLRVVNYTFWRDPESGAWYVSADVEVFPLLPEDPVLLEAGSAGGSA [r15_207_TrMRF] | 3.6

Now for another entry.
[in] Query: folding stability dG unfold; subject: SAPKNYRFKIYFPNGVEFTIPPGWDLEIEEFDPEDGVIRIKMTRYDKDDGKPVEKHDFPFPFRILEPDPSAG [r14_927_TrROS]
[out] 1.89
